assay: Selectivity index, ratio of IC50 human A549 cells to MIC for Mycobacterium tuberculosis; format: toxicity, cell-based; details: read-out: Selectivity Index
MEASURED_ENDPOINT: selectivity ratio
Please give only the number in your answer, with no unit.

# example entries with known answers
INSERT INTO assay_data (smiles_code, assay_result) VALUES
  ('O=c1[nH]c2c(cc1CNCc1cccc(C(F)(F)F)n1)c(C1CC1)nn2-c1ccccc1', 20),
  ('O=c1[nH]c2c(cc1CNCc1cccc(C(F)(F)F)c1)c(C1CC1)nn2-c1ccccc1', 10),
  ('Cc1ccc(C(F)(F)F)nc1CNCc1cc2c(C3CC3)nn(-c3ccccc3)c2[nH]c1=O', 10),
  ('Cc1ccc(C(F)(F)F)cc1CNCc1cc2c(C(C)C)nn(-c3ccccc3)c2[nH]c1=O', 35);

# input compound: "Cc1ccc(C(F)(F)F)cc1CNCc1cc2c(C)nn(-c3ccccc3)c2[nH]c1=O" ; wanted: its selectivity ratio
20

* * *

Measured logD accompanies every entry in the list below.
assay: Octanol-water partition coefficient, log D of the compound by shake flask method; assay type: physicochemical
Give the figure by itself; no unit, no explanation.

Worked examples follow.
INSERT INTO assay_data (smiles_code, assay_result) VALUES
  ('Cc1ccc(C(F)(F)F)cc1CNCc1cc2c(C)nn(-c3ccccc3)c2[nH]c1=O', 3.7),
  ('Cc1ccc(C(F)(F)F)nc1CNCc1cc2c(C3CC3)nn(-c3ccccc3)c2[nH]c1=O', 3.4),
  ('O=c1[nH]c2c(cc1CNCc1cccc(C(F)(F)F)n1)c(C1CC1)nn2-c1ccccc1', 3.2),
  ('Cc1ccc(C(F)(F)F)cc1CNCc1cc2c(C3CC3)nn(-c3ccccc3)c2[nH]c1=O', 3.9);

Given "O=c1[nH]c2c(cc1CNCc1cccc(C(F)(F)F)c1)c(C1CC1)nn2-c1ccccc1" , state its recorded logD.
3.9

* * *

system: Mycolicibacterium smegmatis; assay: Ratio of IC50 for Mycobacterium smegmatis DprE1 Y321H mutant expressed in Escherichia coli Rosetta cells to IC50 for wild type Mycobacterium smegmatis DprE1 expressed in Escherichia coli Rosetta cells
Each entry below carries its reported Ratio IC50.
Give the figure only, with no unit attached.

Use these answered entries as a reference point.
INSERT INTO measurements (smiles_code, measured_endpoint, assay_result) VALUES
  ('Cc1ccc(C(F)(F)F)cc1CNCc1cc2c(C)nn(-c3ccccc3)c2[nH]c1=O', 'Ratio IC50', 150),
  ('Cc1ccc(C(F)(F)F)cc1CNCc1cc2c(C3CC3)nn(-c3ccccc3)c2[nH]c1=O', 'Ratio IC50', 740),
  ('O=c1[nH]c2c(cc1CNCc1cccc(C(F)(F)F)c1F)c(C1CC1)nn2-c1ccccc1', 'Ratio IC50', 38),
  ('O=c1[nH]c2c(cc1CNCc1cc(C(F)(F)F)ccc1F)c(C1CC1)nn2-c1ccccc1', 'Ratio IC50', 107);

Field: next compound
Requested read-out Ratio IC50, target or system Mycolicibacterium smegmatis, entry "O=c1[nH]c2c(cc1CNCc1cccc(C(F)(F)F)n1)c(C1CC1)nn2-c1ccccc1"
40

* * *

experiment: Inhibition of Mycobacterium smegmatis DprE1 expressed in Escherichia coli Rosetta cells using farnesyl-phosphoryl-beta-D-ribofuranose as substrate by fluorescence analysis; parameters: species or system Mycolicibacterium smegmatis
Listed next: entries and their corresponding IC50.
Note: unit nM is implicit; provide only the numeric part.

Solved cases below.
INSERT INTO measurements (smiles_code, measured_endpoint, assay_result) VALUES
  ('Cc1nn(-c2ccccc2)c2[nH]c(=O)c(CNCc3cccc(C(F)(F)F)c3)cc12', 'IC50', 400),
  ('Cc1nn(-c2ccccc2)c2[nH]c(=O)c(CNCc3cccc(C#N)c3)cc12', 'IC50', 2600),
  ('Cc1ccc(C(F)(F)F)cc1CNCc1cc2c(C)nn(-c3ccccc3)c2[nH]c1=O', 'IC50', 7),
  ('C[C@H]1COC2(CCN(c3nc(=O)c4cc(C(F)(F)F)cc([N+](=O)[O-])c4s3)CC2)O1', 'IC50', 5),
  ('Cc1ccc(CNCc2cc3c(C)nn(-c4ccccc4)c3[nH]c2=O)cc1C', 'IC50', 1200);

# input for lookup
Reported IC50 for "COc1ncnc(Cn2cc(C(=O)NCCF)c3ncccc32)c1C" : what is it?
5
